Ref: patent US20130230533A1

Molecular target: T1, Monomeric human CD48-mmH (human)
T1 construct: also called soluble CD48 expressed with a myc-myc-hexa-histidine C-terminal tag [mmH]
T1 chain: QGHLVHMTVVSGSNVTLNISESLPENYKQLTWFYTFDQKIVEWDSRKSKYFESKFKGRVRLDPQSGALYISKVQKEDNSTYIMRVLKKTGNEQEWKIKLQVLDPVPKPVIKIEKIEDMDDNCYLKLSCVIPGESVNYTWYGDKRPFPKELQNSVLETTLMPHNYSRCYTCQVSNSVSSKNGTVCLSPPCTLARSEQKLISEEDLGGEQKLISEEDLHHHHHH
Assay: SPR (Biacore T100), 25 C, antibody captured by anti-Fc, monomeric CD48-mmH in solution
readout type: koff (s⁻¹)
API: value field is a number in s⁻¹; no unit string.

Example entries and their recorded answers appear below.
[[record]]
binder = "H3M1766N (antibody, V domains shown, also called H2M1766N) VH: EVQLVESGGGLAQPGGSLRLSCAASGFTFSSYEMNWVRQAPGKGLEWVSYITTSGSTIYYADSVKGRFTMSRDNAKKSLYLEMNSLRAEDTAVYYCAREECTNGVCYKDYQYYGMDVWGQGTTVTVSS VL: DIQMTQSPSSVSASVGDRVTITCRASQNINTWLAWYQQKPGKVPKLLIYAASSLQSGVPSRFSGSGSGTDFTLTISSLQPEDFATYYCQQANSFPLTFGGGTKVEIK"
readout_type = "koff"
unit_symbol = "s⁻¹"
obs_value = 0.000177

[[record]]
binder = "H4H1775P (antibody, human IgG4, V domains shown, Human IgG4 Fc (prefix H4H)) VH: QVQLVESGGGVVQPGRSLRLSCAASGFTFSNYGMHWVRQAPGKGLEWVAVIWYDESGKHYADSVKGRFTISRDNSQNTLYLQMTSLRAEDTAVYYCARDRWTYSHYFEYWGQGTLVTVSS VL: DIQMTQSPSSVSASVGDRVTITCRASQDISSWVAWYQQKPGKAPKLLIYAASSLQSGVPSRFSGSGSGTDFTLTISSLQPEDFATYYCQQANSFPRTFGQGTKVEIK"
readout_type = "koff"
unit_symbol = "s⁻¹"
obs_value = "4.92e-05"

[[record]]
binder = "H2M1712N (antibody, mouse IgG2, V domains shown, Human variable domains, mouse IgG2 Fc (prefix H2M)) VH: QIQLVQSGAEMKRPGTSVKVSCKASGYTFSSYGINWVRQAPGQGLEWMGWISAYNGDTNYAQKLQGRVTMTTDTSTTTAYMEVRSLRSDDTAVYYCARFLTGTKDLYYGMDVWGQGTTVTVSS VL: DIQMTQSPSSLSASVGDRVTITCQASQDISNFLNWYQQKPGKAPDLLINDASILETGVPSRFSGSGSGTDFTLTINSLQPEDIATYYCQQYDNLPLTFGGGTKVEIK"
readout_type = "koff"
unit_symbol = "s⁻¹"
obs_value = 0.00619


Okay, now this binder:
State the recorded koff for this entry: H4H1771P (antibody, human IgG4, V domains shown, Human IgG4 Fc (prefix H4H)) VH: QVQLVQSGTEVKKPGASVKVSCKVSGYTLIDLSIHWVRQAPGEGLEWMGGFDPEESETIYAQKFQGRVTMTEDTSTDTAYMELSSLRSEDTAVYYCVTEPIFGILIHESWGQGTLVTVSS VL: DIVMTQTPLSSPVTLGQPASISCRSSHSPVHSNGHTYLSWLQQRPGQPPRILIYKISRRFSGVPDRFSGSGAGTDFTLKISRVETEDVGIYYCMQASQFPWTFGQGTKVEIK
0.000209
